biological target: cynomolgus monkey DLL4 extracellular domain (cynomolgus monkey); test: Biacore SPR; head says nM, kd/ka gives M
Would you mind telling me the reported pKd of each entry?
Units for pKd: none; it is -log10 of a concentration expressed in mol/L.

Prompt: Read off the recorded pKd for h1A11.A6 (antibody, V domains shown) VH: EVQLVESGGGLVQPGGSLRLSCAASGFTFRHFPMAWVRQAPGKGLEWVATISSSDAWPSYRDSVKGRFTISRDNAKNSLYLQMNSLRAEDTAVYYCSRGYYNSPFAYWGQGTLVTVSS VL: DIQMTQSPSSLSASVGDRVTITCRASEDIYSNLAWYQQKPGKAPKLLIYDTNNLADGVPSRFSGSGSGTDFTLTISSLQPEDFATYYCQQYNNYPPTFGQGTKLEIK
Response: 9.92

Prompt: Read off the recorded pKd for h1A11.B5 (antibody, V domains shown) VH: EVQLVESGGGLVQPGGSLRLSCAASGFTFRYFPMSWVRQAPGKGLEWVASISGSDGWASYRDSVKGRFTISRDNAKNSLYLQMNSLRAEDTAVYYCARGYYNSPFASWGQGTLVTVSS VL: DIQMTQSPSSLSASVGDRVTITCRASQDIWNNLAWYQQKPGKSPKLLIFDTSYLADGVPSRFSGSGSGTDFTLTISSLQPEDFATYYCQQYDWYPPTFGQGTKLEIK
Response: 8.82

Prompt: Read off the recorded pKd for h1A11.F5 (antibody, V domains shown) VH: EVQLVESGGGLVQPGGSLRLSCAASGFTFRHFPMAWVRQAPGKGLEWVATISSSDAWPSYRDSVKGRFTISRDNAKNSLYLQMNSLRAEDTAVYYCARGYYNSPFAYWGQGTLVTVSS VL: DIQMTQSPSSLSASVGDRVTITCRASQEIYRNLAWYQQKPGKSPKLLIFDTSVLADGVPSRFSGSGSGTDSTLTISSLQPEDFATYYCQQYTYYPPTFGQGTKLEIK
Response: 9.77

The values you see were collected from patent US20160031986A1.
